Tested on: Cryptococcus neoformans
Experiment: Growth inhibition of Cryptococcus neoformans H99 ATCC 208821 at 32 ug/ml after 24 hrs by resazurin dye-based microspectrophotometric assay
Format: functional
Conditions: var. grubii H99 ATCC 208821, 24 h, read-out: GI
What inhibition of growth at 32 µg/mL was measured for each of the following?
Numbers only, in %.

chemical_structure=CC(=O)N1CCCN1C(=O)N1CCC[C@H]1C(=O)N1CCCN1C(=O)N1CCC[C@H]1C(=O)N1CCCN1C(=O)N1CCC[C@H]1C(=O)N1CCCN1C(=O)N1CCC[C@H]1C(=O)N1CCCN1C(=O)N1CCC[C@H]1C(=O)N1CCCN1C(=O)N1CCC[C@H]1C(=O)N1CCCN1C(=O)N1CCC[C@H]1C(=O)N1CCCN1C(=O)N1CCC[C@H]1C(=O)NCCO tested_on="Cryptococcus neoformans" uom=% result=-0.86

Your task in this section: give inhibition of growth at 32 µg/mL for each listed record.
1. O=CN1CCCN1C(=O)N1CCC[C@H]1C(=O)N1CCCN1C(=O)N1CCC[C@H]1C(=O)N1CCCN1C(=O)N1CCC[C@H]1C(=O)N1CCCN1C(=O)N1CCC[C@H]1C(=O)N1CCCN1C(=O)N1CCC[C@H]1C(=O)N1CCCN1C(=O)N1CCC[C@H]1C(=O)N1CCCN1C(=O)N1CCC[C@H]1C(=O)NCCO
2. CC(C)(C)OC(=O)[C@@H]1CCCN1C(=O)N1CCCN1C(=O)[C@@H]1CCCN1C(=O)N1CCCN1C(=O)[C@@H]1CCCN1C(=O)N1CCCN1C(=O)[C@@H]1CCCN1C(=O)N1CCCN1C(=O)OCc1ccccc1

Reply:
1: -8.29; 2: -0.865

Task item: I'd like to know its inhibition of growth at 32 µg/mL. The molecule in question is CC(C)(C)OC(=O)[C@@H]1CCCN1C(=O)N1CCCN1C(=O)[C@@H]1CCCN1C(=O)N1CCCN1C(=O)[C@@H]1CCCN1C(=O)N1CCCN1C(=O)[C@@H]1CCCN1C(=O)N1CCCN1
Reply: -4.84

---

Assay: Hemolytic activity against human RBC at 3.125 uM after 1 hr by Drabkin's assay relative to control
Type: ADME, cell-based, Erythrocyte
Conditions: human red blood cells (erythrocytes), read-out: Activity
What hemolysis at 1 h, 3.125 µM was measured for each of the following?
Numbers only, in %.

Examples with answers:
chemical_structure=CC(C)(C)OC(=O)[C@@H]1CCCN1C(=O)N1CCCN1C(=O)[C@@H]1CCCN1C(=O)N1CCCN1C(=O)[C@@H]1CCCN1C(=O)N1CCCN1C(=O)[C@@H]1CCCN1C(=O)N1CCCN1C(=O)OCc1ccccc1 uom=% result=0.181
chemical_structure=O=CN1CCCN1C(=O)N1CCC[C@H]1C(=O)N1CCCN1C(=O)N1CCC[C@H]1C(=O)N1CCCN1C(=O)N1CCC[C@H]1C(=O)N1CCCN1C(=O)N1CCC[C@H]1C(=O)N1CCCN1C(=O)N1CCC[C@H]1C(=O)NCCO uom=% result=0.02
chemical_structure=O=C(NCCO)[C@@H]1CCCN1C(=O)N1CCCN1C(=O)[C@@H]1CCCN1C(=O)N1CCCN1C(=O)[C@@H]1CCCN1C(=O)N1CCCN1C(=O)[C@@H]1CCCN1C(=O)N1CCCN1C(=O)[C@@H]1CCCN1C(=O)N1CCCN1C(=O)[C@@H]1CCCN1C(=O)N1CCCN1C(=O)[C@@H]1CCCN1C(=O)N1CCCN1C(=O)[C@@H]1CCCN1C(=O)N1CCCN1C(=O)OCc1ccccc1 uom=% result=0.15

Task item: If you can, please state the reported hemolysis at 1 h, 3.125 µM value of CC(C)(C)OC(=O)[C@@H]1CCCN1C(=O)N1CCCN1C(=O)[C@@H]1CCCN1C(=O)N1CCCN1C(=O)[C@@H]1CCCN1C(=O)N1CCCN1C(=O)[C@@H]1CCCN1C(=O)N1CCCN1C(=O)[C@@H]1CCCN1C(=O)N1CCCN1C(=O)[C@@H]1CCCN1C(=O)N1CCCN1C(=O)[C@@H]1CCCN1C(=O)N1CCCN1C(=O)[C@@H]1CCCN1C(=O)N1CCCN1.Cl .
Reply: -0.361

---

Assay: Hemolytic activity against human RBC at 12.5 uM after 1 hr by Drabkin's assay relative to control
Format: ADME, cell-based, Erythrocyte
Details: human red blood cells (erythrocytes), read-out: Activity
For each record, write down the corresponding hemolysis at 1 h, 12.5 µM.
Numbers only, in %.

Example cases with answers are listed next.
chemical_structure=O=CN1CCCN1C(=O)N1CCC[C@H]1C(=O)N1CCCN1C(=O)N1CCC[C@H]1C(=O)N1CCCN1C(=O)N1CCC[C@H]1C(=O)N1CCCN1C(=O)N1CCC[C@H]1C(=O)N1CCCN1C(=O)N1CCC[C@H]1C(=O)NCCO recorded_metric="hemolysis at 1 h, 12.5 µM" result=-0.913
chemical_structure=O=CN1CCCN1C(=O)N1CCC[C@H]1C(=O)N1CCCN1C(=O)N1CCC[C@H]1C(=O)N1CCCN1C(=O)N1CCC[C@H]1C(=O)N1CCCN1C(=O)N1CCC[C@H]1C(=O)N1CCCN1C(=O)N1CCC[C@H]1C(=O)N1CCCN1C(=O)N1CCC[C@H]1C(=O)N1CCCN1C(=O)N1CCC[C@H]1C(=O)N1CCCN1C(=O)N1CCC[C@H]1C(=O)NCCO recorded_metric="hemolysis at 1 h, 12.5 µM" result=-0.23
chemical_structure=O=CN1CCCN1C(=O)N1CCC[C@H]1C(=O)N1CCCN1C(=O)N1CCC[C@H]1C(=O)N1CCCN1C(=O)N1CCC[C@H]1C(=O)N1CCCN1C(=O)N1CCC[C@H]1C(=O)N1CCCN1C(=O)N1CCC[C@H]1C(=O)N1CCCN1C(=O)N1CCC[C@H]1C(=O)N1CCCN1C(=O)N1CCC[C@H]1C(=O)NCCO recorded_metric="hemolysis at 1 h, 12.5 µM" result=-0.045

Dear colleague, could you send me hemolysis at 1 h, 12.5 µM for each of the items below? Thanks.
1. O=C(O)[C@@H]1CCCN1C(=O)N1CCCN1C(=O)[C@@H]1CCCN1C(=O)N1CCCN1C(=O)[C@@H]1CCCN1C(=O)N1CCCN1C(=O)[C@@H]1CCCN1C(=O)N1CCCN1C(=O)[C@@H]1CCCN1C(=O)N1CCCN1C(=O)[C@@H]1CCCN1C(=O)N1CCCN1C(=O)[C@@H]1CCCN1C(=O)N1CCCN1C(=O)[C@@H]1CCCN1C(=O)N1CCCN1C(=O)OCc1ccccc1
2. CC(C)(C)OC(=O)[C@@H]1CCCN1C(=O)N1CCCN1C(=O)[C@@H]1CCCN1C(=O)N1CCCN1C(=O)[C@@H]1CCCN1C(=O)N1CCCN1C(=O)[C@@H]1CCCN1C(=O)N1CCCN1C(=O)[C@@H]1CCCN1C(=O)N1CCCN1C(=O)[C@@H]1CCCN1C(=O)N1CCCN1C(=O)[C@@H]1CCCN1C(=O)N1CCCN1C(=O)[C@@H]1CCCN1C(=O)N1CCCN1C(=O)OCc1ccccc1

Reply:
0.181
-0.04

// each compound listed below needs its hemolysis at 1 h, 12.5 µM
1. CC(=O)N1CCCN1C(=O)N1CCC[C@H]1C(=O)N1CCCN1C(=O)N1CCC[C@H]1C(=O)N1CCCN1C(=O)N1CCC[C@H]1C(=O)N1CCCN1C(=O)N1CCC[C@H]1C(=O)N1CCCN1C(=O)N1CCC[C@H]1C(=O)N1CCCN1C(=O)N1CCC[C@H]1C(=O)N1CCCN1C(=O)N1CCC[C@H]1C(=O)N1CCCN1C(=O)N1CCC[C@H]1C(=O)NCCO
2. CC(C)(C)OC(=O)[C@@H]1CCCN1C(=O)N1CCCN1C(=O)[C@@H]1CCCN1C(=O)N1CCCN1C(=O)[C@@H]1CCCN1C(=O)N1CCCN1C(=O)[C@@H]1CCCN1C(=O)N1CCCN1C(=O)[C@@H]1CCCN1C(=O)N1CCCN1C(=O)[C@@H]1CCCN1C(=O)N1CCCN1C(=O)[C@@H]1CCCN1C(=O)N1CCCN1C(=O)[C@@H]1CCCN1C(=O)N1CCCN1.Cl

Reply:
1: -0.33; 2: 0.181

---

Give measured hemolysis at 1 h, 6.25 µM for each item. Keep answers brief.
Assay: Hemolytic activity against human RBC at 6.25 uM after 1 hr by Drabkin's assay relative to control
Format: ADME, cell-based, Erythrocyte
Conditions: human red blood cells (erythrocytes), read-out: Activity
Numbers only, in %.

chemical_structure=CC(C)(C)OC(=O)N1CCC[C@H]1C(=O)N1CCCN1C(=O)N1CCC[C@H]1C(=O)N1CCCN1C(=O)N1CCC[C@H]1C(=O)N1CCCN1C(=O)N1CCC[C@H]1C(=O)N1CCCN1C(=O)N1CCC[C@H]1C(=O)N1CCCN1C(=O)N1CCC[C@H]1C(=O)N1CCCN1C(=O)N1CCC[C@H]1C(=O)N1CCCN1C(=O)N1CCC[C@H]1C(=O)N1CCCN1C(=O)OCc1ccccc1 uom=% result=-0.11
chemical_structure=O=CN1CCCN1C(=O)N1CCC[C@H]1C(=O)N1CCCN1C(=O)N1CCC[C@H]1C(=O)N1CCCN1C(=O)N1CCC[C@H]1C(=O)N1CCCN1C(=O)N1CCC[C@H]1C(=O)N1CCCN1C(=O)N1CCC[C@H]1C(=O)N1CCCN1C(=O)N1CCC[C@H]1C(=O)N1CCCN1C(=O)N1CCC[C@H]1C(=O)N1CCCN1C(=O)N1CCC[C@H]1C(=O)NCCO uom=% result=-0.17
chemical_structure=CC(C)(C)OC(=O)[C@@H]1CCCN1C(=O)N1CCCN1C(=O)[C@@H]1CCCN1C(=O)N1CCCN1C(=O)[C@@H]1CCCN1C(=O)N1CCCN1C(=O)[C@@H]1CCCN1C(=O)N1CCCN1C(=O)[C@@H]1CCCN1C(=O)N1CCCN1C(=O)[C@@H]1CCCN1C(=O)N1CCCN1C(=O)[C@@H]1CCCN1C(=O)N1CCCN1C(=O)[C@@H]1CCCN1C(=O)N1CCCN1C(=O)OCc1ccccc1 uom=% result=-0.37
chemical_structure=O=C(O)[C@@H]1CCCN1C(=O)N1CCCN1C(=O)[C@@H]1CCCN1C(=O)N1CCCN1C(=O)[C@@H]1CCCN1C(=O)N1CCCN1C(=O)[C@@H]1CCCN1C(=O)N1CCCN1C(=O)OCc1ccccc1 uom=% result=0.452
chemical_structure=CC(C)(C)OC(=O)N1CCC[C@H]1C(=O)N1CCCN1C(=O)N1CCC[C@H]1C(=O)N1CCCN1C(=O)N1CCC[C@H]1C(=O)N1CCCN1C(=O)N1CCC[C@H]1C(=O)N1CCCN1C(=O)OCc1ccccc1 uom=% result=-0.152

Quick batch: hemolysis at 1 h, 6.25 µM for everything below.
1. O=CN1CCCN1C(=O)N1CCC[C@H]1C(=O)N1CCCN1C(=O)N1CCC[C@H]1C(=O)N1CCCN1C(=O)N1CCC[C@H]1C(=O)N1CCCN1C(=O)N1CCC[C@H]1C(=O)N1CCCN1C(=O)N1CCC[C@H]1C(=O)N1CCCN1C(=O)N1CCC[C@H]1C(=O)NCCO
2. O=CN1CCCN1C(=O)N1CCC[C@H]1C(=O)N1CCCN1C(=O)N1CCC[C@H]1C(=O)N1CCCN1C(=O)N1CCC[C@H]1C(=O)N1CCCN1C(=O)N1CCC[C@H]1C(=O)N1CCCN1C(=O)N1CCC[C@H]1C(=O)N1CCCN1C(=O)N1CCC[C@H]1C(=O)N1CCCN1C(=O)N1CCC[C@H]1C(=O)NCCO

Reply:
1. -0.181
2. -0.29
